Measured pKd, listed per entry for reference.
# System name: T1, recombinant human PDGF-CC active core domain protein with terminal histidine tag (human, UniProt Q9NRA1 231-345)
# T1 construct: Made in baculovirus-infected Sf9 cells; The position of the tag in the chain is not known; also called RhPC; RhPCc; not shown: terminal histidine tag
# T1 sequence (Q9NRA1 231-345 limits assumed): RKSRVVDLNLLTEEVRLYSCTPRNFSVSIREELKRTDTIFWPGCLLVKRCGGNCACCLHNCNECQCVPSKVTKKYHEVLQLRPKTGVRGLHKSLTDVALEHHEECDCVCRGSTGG
# Test: SPR, BIAcore 2000, His-tagged PDGF-CC on Ni-NTA chip, antibody as analyte, 1:1 Langmuir fit (apparent)
pKd: −log10 of the molar value.

[
  {
    "Binder": "monoclonal antibody 6B3 (antibody, mouse IgG2a, V domains shown, The variable domains are identical to those of 19C7; also called mu6B3; murine 6B3) VH: QVQLQQSGVEVARPGASVKLSCKASGYTFRSYGITWVRQRTGQGLEWIGEIYPRSGKTYYNEKFKGKATLTADTSSSTVYMELRSLTSEDSAVYFCAREGYGYDGGYFDYWGQGTTLTVSS VL: DIVMTQSPSSLAMSVGQKVTMSCKSSQSLLNSRNQKNYLAWYQQKPGQSPKLLVYFASTRESGVPDRFTGSGSGTDFTLTISSVQAEDLAVYYCQQHYSTPLTFGAGTKLELKR",
    "pKd": 9.05
  },
  {
    "Binder": "monoclonal antibody 19C7 (antibody, mouse IgG2a, V domains shown, Murine IgG2a, kappa light chain) VH: QVQLQQSGVEVARPGASVKLSCKASGYTFRSYGITWVRQRTGQGLEWIGEIYPRSGKTYYNEKFKGKATLTADTSSSTVYMELRSLTSEDSAVYFCAREGYGYDGGYFDYWGQGTTLTVSS VL: DIVMTQSPSSLAMSVGQKVTMSCKSSQSLLNSRNQKNYLAWYQQKPGQSPKLLVYFASTRESGVPDRFTGSGSGTDFTLTISSVQAEDLAVYYCQQHYSTPLTFGAGTKLELKR",
    "pKd": 9.15
  },
  {
    "Binder": "monoclonal antibody 11F5 (antibody, mouse IgG2a, V domains shown, Murine IgG2a, kappa light chain) VH: QVQLQQSGAELARPGASVKLSCKASGYIFISYGISWVKQRTGQGLEWIGEIYPRSGKTYYNEKFKDKAALTADKSSSIAYMELRSLTSEDSAVYFCAREGYGYDGGYFDYWGQGTILTVSS VL: DIVMTQSPSSLAMSVGQKVAVSCKSSQSLLNSSNQKNYLAWYQQKPGQSPKLLVYFASTRDSGVPDRFTGSGSGTDFTLTISSVQAEDLAVYYCQQHYSTPLTFGAGTKLELKR",
    "pKd": 8.98
  },
  {
    "Binder": "chimeric anti-PDGF-CC antibody 6B3 (ch6B3) (antibody, V domains shown, also called chimeric 6B3; mouse-human chimeric antibody 6B3) VH: QVQLQQSGVEVARPGASVKLSCKASGYTFGSYGITWVRQRTGQGLEWIGEIYPRSGKTYYNEKFKGKATLTADTSSSTVYMELRSLTSEDSAVYFCAREGYGYDGGYFDYWGQGTTLTVSS VL: DIVMTQSPSSLAMSVGQKVTMSCKSSQSLLNSRNQKNYLAWYQQKPGQSPKLLVYFASTRESGVPDRFTGSGSGTDFTLTISSVQAEDLAVYYCQQHYSTPLTFGAGTKLELKR",
    "pKd": 9.15
  }
]

Sourced from patent US20220275075A1
